Target of assay: T1, P3028 (VFDEFKPLVEEPQNLIK, SEQ ID NO: 185), His-tagged (human)
T1 construct: Synthetic fragment of human serum albumin (positions 397-413); used in solution as His-tagged peptide PGE73; also called PGE73; not shown: His-tag
T1 peptide: VFDEFKPLVEEPQNLIK
Protocol description: PEPSCAN ELISA; peptide on chip, His-P3028 added;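 further: peroxidase color development with ABTS and H2O2 substrate, OD405 imaged by CCD camera with image processing and taken as raw values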
Known RAMPO Score of a selection of binders
Endpoint label: RAMPO Score (rampo units)

                                     binder   scale_unit  observed_result
0  KKLDTFFGKLSLFTER [KKLDTFFGKLSLFTER (SEQ ID NO: 327)]  rampo units              379
1  KKLDTFFVKCSLFTER [KKLDTFFVKCSLFTER (SEQ ID NO: 508)]  rampo units              283
2  KKLDWFFVKLSLFTER [KKLDWFFVKLSLFTER (SEQ ID NO: 311)]  rampo units              418
3  KKLDTFIVKLSLFTER [KKLDTFIVKLSLFTER (SEQ ID NO: 397)]  rampo units              446
4  KKLKTFFVKLSLFTER [KKLKTFFVKLSLFTER (SEQ ID NO: 512)]  rampo units              274
5  KKLDTFMVKLSLFTER [KKLDTFMVKLSLFTER (SEQ ID NO: 321)]  rampo units              712
6  KKLDNFFVKLSLFTER [KKLDNFFVKLSLFTER (SEQ ID NO: 306)]  rampo units              436

Source listed as patent US20180177842A1.
